Test system: KNS-62;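 also: inhibition of cell growth, read out with a cell viability assay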
Experiment: cells
Format: functional, cell-based
Conditions: Homo sapiens
Description: SANGER: Inhibition of human KNS-62 cell growth in a cell viability assay.
pIC50: −log10 of the molar value.
measured_property: pIC50

>>> print(df.to_string())
                                   compound  result
0   O=C1N=C(NCc2cccs2)S/C1=C\c1ccc2ncccc2c1  < 5.30
1  CC(=O)O[C@@H]1[C@@H](OC(C)=O)[C@@H](O)[C@H](Oc2c(-c3ccc(O)cc3)oc3cc(O)cc(O)c3c2=O)O[C@H]1C  < 5.00
2  CN(Cc1cnc2nc(N)nc(N)c2n1)c1ccc(C(=O)N[C@@H](CCC(=O)O)C(=O)O)cc1 [METHOTREXATE]  < 6.70
3  COc1ccc(-c2ccc3c(N4CCOC[C@@H]4C)nc(N4CCOC[C@@H]4C)nc3n2)cc1CO    6.30
4  COc1ccc(C2=N[C@@H](c3ccc(Cl)cc3)[C@@H](c3ccc(Cl)cc3)N2C(=O)N2CCNC(=O)C2)c(OC(C)C)c1  < 5.10

###

Test system: HN
Experiment: cells
Type: functional, cell-based, Homo sapiens
Conditions: Homo sapiens, HN
Description: SANGER: Inhibition of human HN cell growth in a cell viability assay.
Recorded measurements of IC50, one per entry

molecule	IC50
COc1ccc(-c2ccc3c(N4CCOC[C@@H]4C)nc(N4CCOC[C@@H]4C)nc3n2)cc1CO [AZD-8055]	1900 nM
Cn1cncc1[C@@](N)(c1ccc(Cl)cc1)c1ccc2c(c1)c(-c1cccc(Cl)c1)cc(=O)n2C [TIPIFARNIB]	> 16000 nM
Cc1ccc(Nc2nccc(N(C)c3ccc4c(C)n(C)nc4c3)n2)cc1S(N)(=O)=O [PAZOPANIB]	> 8000 nM
CC(=O)O[C@@]12CO[C@@H]1C[C@H](O)[C@@]1(C)C(=O)[C@H](O)C3=C(C)[C@@H](OC(=O)[C@H](O)[C@@H](NC(=O)OC(C)(C)C)c4ccccc4)C[C@@](O)([C@@H](OC(=O)c4ccccc4)[C@H]21)C3(C)C [DOCETAXEL]	0.758 nM
O=c1cc(-c2cccc3c2Sc2ccccc2S3)oc(N2CCOCC2)c1 [KU-55933]	> 10000 nM
C=CCc1cccc(/C=N/NC(=O)CN2CCN(Cc3ccccc3)CC2)c1O [PAC-1]	> 2560 nM
CC(=O)O[C@@H]1[C@@H](OC(C)=O)[C@@H](O)[C@H](Oc2c(-c3ccc(O)cc3)oc3cc(O)cc(O)c3c2=O)O[C@H]1C	> 10000 nM

###

Recorded measurements of pIC50, one per entry
Test system: PANC-08-13;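 also: cell growth inhibition, measured with a cell viability assay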
Experiment: cells
Type: functional, cell-based, Homo sapiens
Settings: Homo sapiens, PANC-08-13
Description: SANGER: Inhibition of human PANC-08-13 cell growth in a cell viability assay.
pIC50: −log10 of the molar value.

molecule	experimental_system	value_prefix	pIC50
COc1ccc(C2=N[C@@H](c3ccc(Cl)cc3)[C@@H](c3ccc(Cl)cc3)N2C(=O)N2CCNC(=O)C2)c(OC(C)C)c1 [NUTLIN-3]	PANC-08-13	<	5.10
O=c1cc(-c2cccc3c2Sc2ccccc2S3)oc(N2CCOCC2)c1 [KU-55933]	PANC-08-13	<	5.00
CCC1=C[C@@H]2CN(C1)Cc1c([nH]c3ccccc13)[C@@](C(=O)OC)(c1cc3c(cc1OC)N(C)[C@H]1[C@@](O)(C(=O)OC)[C@H](OC(C)=O)[C@]4(CC)C=CCN5CC[C@]31[C@@H]54)C2 [VINORELBINE]	PANC-08-13	=	7.33
COc1ccc(-c2ccc3c(N4CCOC[C@@H]4C)nc(N4CCOC[C@@H]4C)nc3n2)cc1CO [AZD-8055]	PANC-08-13	=	6.24
COC(=O)CNC(=O)C(=O)OC	PANC-08-13	=	2.84
CC(=O)O[C@@]12CO[C@@H]1C[C@H](O)[C@@]1(C)C(=O)[C@H](O)C3=C(C)[C@@H](OC(=O)[C@H](O)[C@@H](NC(=O)OC(C)(C)C)c4ccccc4)C[C@@](O)([C@@H](OC(=O)c4ccccc4)[C@H]21)C3(C)C [DOCETAXEL]	PANC-08-13	<	8.00
C[C@]1(O)C[C@@H](c2nc(-c3ccc4ccc(-c5ccccc5)nc4c3)c3c(N)nccn32)C1 [LINSITINIB]	PANC-08-13	=	6.06

###

Recorded measurements of IC50, one per entry
Tested on: D-566MG
Assay: cells
Format: functional, cell-based
Conditions: Homo sapiens
measured_property: IC50 (nM)

structure_as_smiles	value_units	value_prefix	quantitative_result
O=C(c1cc(Cc2n[nH]c(=O)c3ccccc23)ccc1F)N1CCN(C(=O)C2CC2)CC1	nM	=	2450
CC(=O)O[C@@]12CO[C@@H]1C[C@H](O)[C@@]1(C)C(=O)[C@H](O)C3=C(C)[C@@H](OC(=O)[C@H](O)[C@@H](NC(=O)OC(C)(C)C)c4ccccc4)C[C@@](O)([C@@H](OC(=O)c4ccccc4)[C@H]21)C3(C)C	nM	=	0.182
Cn1cc(C2=C(c3ccc(Cl)cc3Cl)C(=O)NC2=O)c2ccccc21	nM	>	10000

###

System: NCI-H1573
Experiment: cells
Type: functional, cell-based
Details: Homo sapiens
Description: SANGER: Inhibition of human NCI-H1573 cell growth in a cell viability assay.
pIC50: −log10 of the molar value.
measured_property: pIC50

>>> df
                        structure_as_smiles  measured_property  result
0   O=C1N=C(NCc2cccs2)S/C1=C\c1ccc2ncccc2c1              pIC50  < 5.30
1  Cn1cncc1[C@@](N)(c1ccc(Cl)cc1)c1ccc2c(c1)c(-c1cccc(Cl)c1)cc(=O)n2C              pIC50    5.23
2  O=c1cc(-c2cccc3c2Sc2ccccc2S3)oc(N2CCOCC2)c1              pIC50  < 5.00
3  C=CCNC1=C2C[C@@H](C)C[C@H](OC)[C@H](O)[C@@H](C)/C=C(\C)[C@H](OC(N)=O)[C@@H](OC)/C=C\C=C(/C)C(=O)NC(=CC1=O)C2=O              pIC50    6.34
4  COc1ccc(C2=N[C@@H](c3ccc(Cl)cc3)[C@@H](c3ccc(Cl)cc3)N2C(=O)N2CCNC(=O)C2)c(OC(C)C)c1              pIC50  < 5.10
5  C[C@]1(O)C[C@@H](c2nc(-c3ccc4ccc(-c5ccccc5)nc4c3)c3c(N)nccn32)C1              pIC50  < 5.59

###

Recorded measurements of pIC50, one per entry
System: COLO 205
Experiment: cells
Assay type: functional, cell-based
Conditions: Homo sapiens
Description: SANGER: Inhibition of human COLO-205 cell growth in a cell viability assay.
pIC50: −log10 of the molar value.
measured_property: pIC50

                        structure_as_smiles  experimental_system  value_prefix  quantitative_result
0  Cc1cc([C@@H](C)Nc2ccccc2C(=O)O)c2nc(N3CCOCC3)cc(=O)n2c1             COLO 205             <                 5.29
1  C[C@]1(O)C[C@@H](c2nc(-c3ccc4ccc(-c5ccccc5)nc4c3)c3c(N)nccn32)C1             COLO 205             =                 6.98
2  CN(c1ncccc1CNc1nc(Nc2ccc3c(c2)CC(=O)N3)ncc1C(F)(F)F)S(C)(=O)=O             COLO 205             =                 6.31

###

Recorded measurements of IC50, one per entry
Test system: NCI-H526;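 also: growth inhibition of the human NCI-H526 cell line, measured by a cell viability assay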
Assay: cells
Type: functional, cell-based
Settings: Homo sapiens
Description: SANGER: Inhibition of human NCI-H526 cell growth in a cell viability assay.
measured_property: IC50

>>> print(df.to_string())
                         structure_as_smiles     result
 0  C=CCc1cccc(/C=N/NC(=O)CN2CCN(Cc3ccccc3)CC2)c1O  > 2.56 µM
 1  CCC(=O)N1CCN(c2ccc(-n3c(=O)ccc4cnc5ccc(-c6cnc7ccccc7c6)cc5c43)cc2C(F)(F)F)CC1    0.91 µM
 2  O=C(c1cc(Cc2n[nH]c(=O)c3ccccc23)ccc1F)N1CCN(C(=O)C2CC2)CC1    3.87 µM
 3  COc1ccc(-c2ccc3c(N4CCOC[C@@H]4C)nc(N4CCOC[C@@H]4C)nc3n2)cc1CO     > 2 µM
 4  CC(=O)O[C@@H]1[C@@H](OC(C)=O)[C@@H](O)[C@H](Oc2c(-c3ccc(O)cc3)oc3cc(O)cc(O)c3c2=O)O[C@H]1C    > 10 µM
 5             CCc1nc(N)nc(N)c1-c1ccc(Cl)cc1    7.92 µM
 6  CC1=C2C[C@H]3[C@@H](CC=C4C[C@@H](O)CC[C@@]43C)[C@@H]2CC[C@]12O[C@@H]1C[C@H](C)CN[C@H]1[C@H]2C    > 16 µM
 7  CN(C)C/C=C/C(=O)Nc1cc2c(Nc3ccc(F)c(Cl)c3)ncnc2cc1O[C@H]1CCOC1  0.0782 µM
 8  COc1ccc(C2=N[C@@H](c3ccc(Cl)cc3)[C@@H](c3ccc(Cl)cc3)N2C(=O)N2CCNC(=O)C2)c(OC(C)C)c1     > 8 µM
 9  Cc1cc([C@@H](C)Nc2ccccc2C(=O)O)c2nc(N3CCOCC3)cc(=O)n2c1  > 5.12 µM
10  CN(c1ncccc1CNc1nc(Nc2ccc3c(c2)CC(=O)N3)ncc1C(F)(F)F)S(C)(=O)=O  > 2.56 µM
